# Tested on: HOP-92 NSCLC
# protocol details: NCI tumour cell line growth inhibition, 48 h
Answer each item with its documented TGI.
The response must be a number in µM with no trailing unit.

Provide the documented TGI with HOP-92 NSCLC as the system for `CN(C)C(=S)/N=c1\ssc(=S)n1-c1ccccc1`
34.7

What is its TGI for HOP-92 NSCLC? Entry: `COc1ccc2c(O)c(/C=C3\N=Nc4ncccc43)oc2c1C[C@H]1CCNC[C@H]1F`
11.3

Missing value: TGI, HOP-92 NSCLC, entry `COc1ccc2[nH]c(-c3ccccc3)c(C=C(C#N)C#N)c2c1` . Fill in?
36.4

# value lookup — system HOP-92 NSCLC, readout TGI, item `CCOC(=O)c1c(C)noc1/N=N/N(CCO)CCO`
88.5

----------
# System: TK-10 renal
# protocol details: NCI tumour cell line growth inhibition, 48 h; in the data active = GI50 below about 0.43 µM; inactive = the rest
Bench note: report the call from 1.0 = active, 0.0 = inactive

Can you look up the reported call for `NC(=O)c1ccc2nc(-c3ccc(C4(N)CCC4)cc3)c(-c3ccccc3)n2n1` for me?
0.0

Could you kindly confirm the outcome this assay logged for `O=C(C[C@@]1(O)C(=O)Nc2c(Cl)ccc(Cl)c21)c1ccc(C2CC2)cc1` ?
0.0

Entry `C=CC(=O)NCCOc1cccc(Nc2cc(NCCCNC(=O)C3CCC3)c(Br)cn2)c1` : call = ?
0.0

Hi, do you know how `Cc1cc(C(=O)N[C@@H](CCC(=O)O)C(=O)O)sc1CC[C@@H]1CNc2nc(N)[nH]c(=O)c2C1` came out in this test?
1.0

Check the results log: what was the call for `FC(F)(F)c1[nH]ncc1-c1nc2c(N3CCCCC3)cc3[nH]ncc3c2c2c1CCCC2` ?
0.0

Fill in: this test's call for `Cc1ccc(Nc2[nH]c(C(=O)c3ccc(Cl)cc3)c(N)c2C(=S)Nc2ccccc2)nc1` is ___
0.0

Look up the recorded call for `C[C@H](C(=O)N[C@@H](Cc1ccc(-c2ccccc2)cc1)C(=O)NC1CC(C)(C)N(C)C(C)(C)C1)c1ccc(-c2ccccc2)c(F)c1` in this test.
0.0

Entry `O=S(=O)(CC#CCCCOCC#Cc1ccccc1C#CCS(=O)(=O)c1ccccc1)c1ccccc1` : call = ?
0.0

In this assay, the call recorded for `CCOC(=O)/C(=C/c1ccccc1)C(=O)c1ccccc1` was what?
0.0

Returns: the outcome recorded for `COc1cc2cn3c4ccc(O)cc4nc(N)c3c2cc1OC` in this assay.
0.0

----------
# System: T-47D breast
# protocol details: NCI tumour cell line growth inhibition, 48 h
Where a SMILES comes first, the peptide text is derived from it. The star is where a group is joined. Boc = CC(C)(C)OC(=O)*
quantity name: TGI

Given the entry CSC1=C(C#N)C(=O)N(c2ccc(Cl)cc2)C(=O)C1C#N (stereo not given) , what TGI was observed with T-47D breast?
> 100 µM

Query the reported TGI for T-47D breast; item: COC(=O)C(Cc1c[nH]c2ccccc12)NC(=O)C(Cc1c[nH]c2ccccc12)NC(=O)C(Cc1c[nH]c2ccccc12)NC(=O)OC(C)(C)C (stereo not drawn) (Boc-Trp-Trp-Trp-OMe; configuration not given here)
29.4 µM

Identify the measured TGI of `CCOc1ncn(-c2ccc(NC(=S)Nc3cnccn3)cc2)n1` for T-47D breast.
> 10 µM

Please tell me: TGI of `COc1cc2cn3c4ccc(O)cc4nc(N)c3c2cc1OC` , system T-47D breast?
16.4 µM

Record `Clc1ccccc1-c1nc(-c2ccncc2)no1` : what is its TGI with T-47D breast?
> 100 µM

Test system T-47D breast; read-out TGI; what value for FC(F)(F)c1ccc2c(c1)nc(Cc1ccc(Cl)c(Cl)c1)n2CC1CCCN2CCCCC12 (stereo not given) ?
> 100 µM

Test system T-47D breast; read-out TGI; what value for `CC(C)Oc1c(C2(c3ccccc3O)SCCCS2)c(=O)c1=O` ?
> 100 µM

Record lookup: for T-47D breast, what TGI belongs to COC(=O)/C=C\[C@@H]1[C@H](C)N1S(=O)(=O)c1ccc(C)cc1 (stereo not given in full) ?
> 100 µM

Provide value of TGI for this record tested with T-47D breast: C=CCC(N[C@@H](CO)c1ccccc1)c1ccccn1 (stereo not given in full)
> 100 µM

Observed TGI on T-47D breast for `C/C(=C1/N=C(c2ccccc2)OC1=O)c1ccc(C)cc1` , please.
> 100 µM

// fetch T-47D breast TGI for `OC(Cc1ccccc1)(Cc1ccccc1)c1ccccc1`
> 100 µM

Please tell me: TGI of `C[C@@H]1[C@H]2[C@H](C=C3[C@@H]4CC[C@H]5Cc6nc7c(nc6C[C@]5(C)[C@H]4C[C@@H](O)[C@@]32C)C[C@@H]2CC[C@H]3C4=C[C@@H]5O[C@@]6(CC[C@](C)(CO)O6)[C@@H](C)[C@@]5(O)[C@@]4(C)[C@H](O)C[C@@H]3[C@@]2(C)C7)O[C@]12CCC(C)(C)O2` , system T-47D breast?
> 41.8 µM

Notebook entry, T-47D breast assay: TGI of CC(C)(O)/C=C\P(C)(=O)c1ccccc1 (stereo not given) = ?
> 100 µM

Test system T-47D breast; read-out TGI; what value for `CN(C)CCNC(=O)c1cccc2cc([N+](=O)[O-])ccc12` ?
16.3 µM

Lab note: need TGI for `CSC1=Nc2c(c(C)c(-c3ccccc3)n2CCCCl)C2=NC(=O)CN12` on T-47D breast, anyone have it?
10.9 µM

What value of TGI on T-47D breast does `COc1ccc2[nH]c(-c3ccccc3)c(C=C(C#N)C#N)c2c1` have?
9.14 µM

Missing value: TGI, T-47D breast, entry `CCOC(=O)/C(=C/c1ccccc1)C(=O)c1ccccc1` . Fill in?
32.5 µM

TGI of `OC1CSCCCSCCSCCCSC1` on T-47D breast?
> 100 µM

Form field - read-out: TGI; system: T-47D breast; submitted item: `N#C/C(=C\c1ccc(F)cc1)c1nc2ccccc2c(=O)[nH]1`
> 100 µM

Notebook entry, T-47D breast assay: TGI of `c1ccc(CN2CCCN3CCN(CCCN(Cc4ccccc4)CC3)CC2)cc1` = ?
> 100 µM

Give the reported TGI for `FC(F)(F)c1[nH]ncc1-c1nc2c(N3CCCCC3)cc3[nH]ncc3c2c2c1CCCC2` (system: T-47D breast).
> 13.7 µM

TGI of `CCN(CC)C(=S)SC(=S)N(CC)CC` on T-47D breast?
> 100 µM

Identify the measured TGI of `COC(=O)C1=C([C@H]2COC(C)(C)O2)[C@H]2C[C@@H]1[C@@H]1OC(C)(C)O[C@@H]12` for T-47D breast.
> 100 µM

For T-47D breast, provide TGI of `COc1ccc(-c2nn(-c3ccc(NC(=O)Nc4ccc(Cl)c(Cl)c4)cc3)cc2-c2ccncc2)cc1Cl` please.
> 100 µM

// fetch T-47D breast TGI for CC(C)[C@](O)(C(=O)OCC1=CC[N+]2([O-])CC[C@@H](O)[C@@H]12)[C@H](C)O (stereo not given in full)
> 10000 µM

Value wanted: TGI (T-47D breast) of entry `COc1ccccc1-c1ccc2nc(NC(=O)Nc3cc(C(F)(F)F)cc(C(F)(F)F)c3)sc2c1`
9.89 µM

Requested read-out TGI, target or system T-47D breast, entry `Cc1c2cnccc2c(C)c2c1c1cc(C(=O)O)ccc1n2C`
> 26.5 µM

Param readout= TGI; system= T-47D breast; entry= `NC(=O)c1ccc2nc(-c3ccc(C4(N)CCC4)cc3)c(-c3ccccc3)n2n1` ; returns value.
15.8 µM

API: value(readout=TGI, system=T-47D breast) for record CCC(C(=O)c1cccs1)C(O)(C(F)(F)F)C(F)(F)F (stereo not given)
> 100 µM

// lookup TGI | system=T-47D breast | key= `NC(N)=NCc1ccc2c(c1)OCO2`
> 100 µM

Request: TGI, test system T-47D breast, entry `O=c1c2[nH]c3ccccc3c2nc2n1CCS2`
> 100 µM

Notebook entry, T-47D breast assay: TGI of `S=c1nc[nH]c2nc[nH]c12` = ?
> 627 µM

Report TGI for `COc1ccc2c(c1)C(=O)c1c-2c(OCCN(C)C)nc2cc(OC)ccc12` tested on T-47D breast.
21.8 µM

Request - read-out TGI | tested on T-47D breast | molecule CCOC(=O)NC(Nc1ccc(F)c(F)c1)(C(=O)OCC)C(F)(F)F (stereo not given)
> 100 µM

Requested read-out TGI, target or system T-47D breast, entry `CC(C)(C)OC(=O)N1CC(Cn2cc(C(F)(F)F)c3c(Cl)ncnc32)C1`
27.1 µM

Provide value of TGI for this record tested with T-47D breast: C[n+]1c2ccccc2c(C(=O)NC(CCCN=C(N)N)C(=O)O)c2ccccc21 (stereo not given)
> 100 µM

For the record `Nc1c(S(=O)(=O)O)cc(Nc2cccc(S(N)(=O)=O)c2)c2c1C(=O)c1ccccc1C2=O` , what value of TGI is listed for T-47D breast?
> 100 µM

Please state recorded TGI (tested on T-47D breast) of C[n+]1c2cc(N)ccc2cc2ccc(N)cc21 (tested in a mixture with another compound)
3.02 µM

Item: `CCOC(=O)CCSS(=O)(=O)C(F)(F)F` Test system: T-47D breast Read-out: TGI Value: ?
> 100 µM

Kindly state the measured TGI obtained for CC(C)(Cl)C(Br)CCC(CBr)=C(Cl)CCl (mixture of isomers) with T-47D breast.
5.33 µM
